assay: Solubility of crystalline polymorph in biologically relevant media (water, SGF, FaSSIF, FeSSIF), HPLC of supernatant, pH, XRPD of remaining solids; assay type: physicochemical; settings: fed state simulated intestinal fluid (FeSSIF), thermodynamic from solid; FeSSIF, 37° C., 4 hr
Task for the reader: assign each of the following compounds its reported solubility at 4 h.
Answers are plain numbers, in µg/mL.

1. Cc1nn(-c2nc(C3=CCC(C(F)(F)F)CC3)c(SC(C)C)s2)c(C(=O)O)c1-c1cccc(F)c1 (centres unmarked) [Form 1] = 180

Then this compound:
Recorded result, Cc1nn(-c2nc(C3=CCC(C(F)(F)F)CC3)c(SC(C)C)s2)c(C(=O)[O-])c1-c1cccc(F)c1.[Na+] (centres unmarked) [Form 11] , solubility at 4 h: 300
